Molecular target: S. aureus GyrB ATPase (Staphylococcus aureus)
Sequence (P0AES4 whole entry): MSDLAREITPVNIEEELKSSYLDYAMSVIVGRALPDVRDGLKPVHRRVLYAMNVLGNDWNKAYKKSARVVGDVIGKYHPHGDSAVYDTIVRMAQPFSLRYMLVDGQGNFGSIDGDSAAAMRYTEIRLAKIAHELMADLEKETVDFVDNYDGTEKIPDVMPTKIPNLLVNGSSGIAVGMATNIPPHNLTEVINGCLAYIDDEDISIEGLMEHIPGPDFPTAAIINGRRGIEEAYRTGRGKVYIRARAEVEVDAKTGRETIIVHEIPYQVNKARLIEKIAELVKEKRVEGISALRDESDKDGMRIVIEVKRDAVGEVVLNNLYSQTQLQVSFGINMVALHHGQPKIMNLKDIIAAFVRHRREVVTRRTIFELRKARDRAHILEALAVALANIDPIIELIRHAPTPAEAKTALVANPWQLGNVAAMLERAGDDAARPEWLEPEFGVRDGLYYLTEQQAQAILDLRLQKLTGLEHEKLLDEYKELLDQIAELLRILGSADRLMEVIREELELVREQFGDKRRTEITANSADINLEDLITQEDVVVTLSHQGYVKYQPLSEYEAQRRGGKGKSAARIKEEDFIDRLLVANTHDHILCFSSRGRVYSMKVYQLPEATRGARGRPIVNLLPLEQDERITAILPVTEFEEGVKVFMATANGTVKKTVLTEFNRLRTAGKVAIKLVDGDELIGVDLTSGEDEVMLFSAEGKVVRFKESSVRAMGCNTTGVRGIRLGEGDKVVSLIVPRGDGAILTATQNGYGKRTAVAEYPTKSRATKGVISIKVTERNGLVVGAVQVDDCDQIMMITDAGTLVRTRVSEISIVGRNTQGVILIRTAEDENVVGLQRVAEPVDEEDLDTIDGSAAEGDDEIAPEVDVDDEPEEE
Sequence (P0A0K8 whole entry): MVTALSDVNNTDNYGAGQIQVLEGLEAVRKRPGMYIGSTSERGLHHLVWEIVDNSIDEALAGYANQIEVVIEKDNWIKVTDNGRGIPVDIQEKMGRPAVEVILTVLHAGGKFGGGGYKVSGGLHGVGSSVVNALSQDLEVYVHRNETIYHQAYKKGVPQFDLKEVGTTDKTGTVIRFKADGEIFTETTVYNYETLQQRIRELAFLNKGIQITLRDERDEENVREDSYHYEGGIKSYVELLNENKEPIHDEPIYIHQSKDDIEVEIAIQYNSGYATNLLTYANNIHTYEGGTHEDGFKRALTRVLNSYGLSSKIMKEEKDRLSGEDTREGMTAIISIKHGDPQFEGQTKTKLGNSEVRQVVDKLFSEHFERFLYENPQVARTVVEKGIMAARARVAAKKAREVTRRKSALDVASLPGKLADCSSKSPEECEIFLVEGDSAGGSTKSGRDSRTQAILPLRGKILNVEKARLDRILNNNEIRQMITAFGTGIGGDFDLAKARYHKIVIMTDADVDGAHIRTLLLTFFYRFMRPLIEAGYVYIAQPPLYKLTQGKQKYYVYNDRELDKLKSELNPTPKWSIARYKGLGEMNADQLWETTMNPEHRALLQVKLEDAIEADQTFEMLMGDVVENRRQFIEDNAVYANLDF
Assay: S. aureus GyrB ATPase inhibition (ammonium molybdate/malachite green phosphate detection)
Format: biochemical
Conditions: 1 μM compound; S. aureus GyrB ATPase; read-out: Percent Inhibition (1 μM)
Excerpt: S. aureus GyrB ATPase Inhibition Activity: Compounds may be tested for inhibition of S. aureus GyrB ATPase activity using an ammonium molybdate/malachite green-based phosphate detection assay (Lanzetta, P. A., L. J. Alvarez, P. S. Reinach, and O. A. Candia, 1979, 100: 95-97). […] An IC50 measurement of compound potency for each compound can be determined from reactions performed in the presence of 10 different compound concentrations.

[
  {
    "compound": "CCNC(=O)Nc1cc(-c2nc(C(F)(F)F)cs2)c(-c2cnc3c(c2)c(=O)c(C(=O)O)cn3[C@H]2CCCN(CCN3CCOCC3)C2)cn1 [Example 31]",
    "target under test": "S. aureus GyrB ATPase (Staphylococcus aureus)",
    "inhibition at 1 µM, %": 104
  },
  {
    "compound": "CCNC(=O)Nc1cc(-c2nc(-c3ccccc3)cs2)c(-c2cc3c(=O)c(C(=O)O)cn(Cc4cn(C)cn4)c3cn2)cn1 [Example 65]",
    "target under test": "S. aureus GyrB ATPase (Staphylococcus aureus)",
    "inhibition at 1 µM, %": 98
  },
  {
    "compound": "CCNC(=O)Nc1cc(-c2nc(C(F)(F)F)cs2)c(-c2cc3c(=O)c(C(=O)O)cn(C4CCCCC4)c3cn2)cn1 [Example 39]",
    "target under test": "S. aureus GyrB ATPase (Staphylococcus aureus)",
    "inhibition at 1 µM, %": 102
  },
  {
    "compound": "CCNC(=O)Nc1cc(-c2nc(C(F)(F)F)cs2)c(-c2cnc3c(c2)c(=O)c(C(=O)O)cn3C2CN(C)C2)cn1 [Example 57]",
    "target under test": "S. aureus GyrB ATPase (Staphylococcus aureus)",
    "inhibition at 1 µM, %": 107
  },
  {
    "compound": "CCNC(=O)Nc1cc(-c2nc(C(F)(F)F)cs2)c(-c2cc3c(=O)c(C(=O)O)cn(CC)c3nc2N2CCN(C)CC2)cn1 [Example 38]",
    "target under test": "S. aureus GyrB ATPase (Staphylococcus aureus)",
    "inhibition at 1 µM, %": 101
  },
  {
    "compound": "CCNC(=O)Nc1cc(-c2nc(C(F)(F)F)cs2)c(-c2cc3c(=O)c(C(=O)O)cn([C@H]4CCCN(CCN5CCOCC5)C4)c3cn2)cn1 [Example 48]",
    "target under test": "S. aureus GyrB ATPase (Staphylococcus aureus)",
    "inhibition at 1 µM, %": 101
  },
  {
    "compound": "CCNC(=O)Nc1cc(-c2nc(C(F)(F)F)cs2)c(-c2cnc3c(c2)c(=O)c(C(=O)O)cn3C(COC)COC)cn1 [Example 55]",
    "target under test": "S. aureus GyrB ATPase (Staphylococcus aureus)",
    "inhibition at 1 µM, %": 103
  },
  {
    "compound": "CCNC(=O)Nc1cc(-c2nc(C(F)(F)F)cs2)c(-c2cc3c(=O)c(C(=O)O)cn(CC)c3nc2N2CCC(N)C2)cn1 (centres unmarked) [Example 77]",
    "target under test": "S. aureus GyrB ATPase (Staphylococcus aureus)",
    "inhibition at 1 µM, %": 105
  },
  {
    "compound": "CCNC(=O)Nc1cc(-c2nc(C(F)(F)F)cs2)c(-c2cc3c(=O)c(C(=O)O)cn(C[C@@H]4CCCN4CC)c3nc2N2CCN(C)CC2)cn1 [Example 58]",
    "target under test": "S. aureus GyrB ATPase (Staphylococcus aureus)",
    "inhibition at 1 µM, %": 104
  },
  {
    "compound": "CCNC(=O)Nc1cc(-c2nc(C(F)(F)F)cs2)c(-c2cnc3c(c2)c(=O)c(C(=O)OCCO)cn3CC)cn1 [Example 17]",
    "target under test": "S. aureus GyrB ATPase (Staphylococcus aureus)",
    "inhibition at 1 µM, %": 106
  },
  {
    "compound": "CCNC(=O)Nc1cc(-c2nc(C(F)(F)F)cs2)c(-c2cnc3c(c2)c(=O)c(C(=O)O)cn3CCO)cn1 [Example 10]",
    "target under test": "S. aureus GyrB ATPase (Staphylococcus aureus)",
    "inhibition at 1 µM, %": 93
  },
  {
    "compound": "CCNC(=O)Nc1cc(-c2nc(C(F)(F)F)cs2)c(-c2cc3c(=O)c(C(=O)O)cn(CC)c3nc2NCCN(C)C)cn1 [Example 37]",
    "target under test": "S. aureus GyrB ATPase (Staphylococcus aureus)",
    "inhibition at 1 µM, %": 109
  },
  {
    "compound": "CCNC(=O)Nc1cc(-c2nc(C(F)(F)F)cs2)c(-c2cc3c(=O)c(C(=O)O)cn(CCN4CCOCC4)c3cn2)cn1 [Example 69]",
    "target under test": "S. aureus GyrB ATPase (Staphylococcus aureus)",
    "inhibition at 1 µM, %": 103
  },
  {
    "compound": "CCNC(=O)Nc1cc(-c2nc(C(F)(F)F)cs2)c(-c2cc3c(=O)c(C(=O)O)cn(CCN4CCN(C)CC4)c3nc2N2CC[C@H](N)C2)cn1 [Example 61]",
    "target under test": "S. aureus GyrB ATPase (Staphylococcus aureus)",
    "inhibition at 1 µM, %": 103
  },
  {
    "compound": "CCNC(=O)Nc1cc(-c2nc(C(F)(F)F)cs2)c(-c2cc3c(=O)c(C(=O)O)cn(CC(C)N4CCOCC4)c3cn2)cn1 (centres unmarked) [Example 43]",
    "target under test": "S. aureus GyrB ATPase (Staphylococcus aureus)",
    "inhibition at 1 µM, %": 94
  },
  {
    "compound": "CCNC(=O)Nc1cc(-c2nc(C(F)(F)F)cs2)c(-c2cc3c(=O)c(C(=O)O)cn([C@H](CO)C(C)(C)C)c3nc2N2CCC(N)C2)cn1 (some centres unmarked) [Example 78]",
    "target under test": "S. aureus GyrB ATPase (Staphylococcus aureus)",
    "inhibition at 1 µM, %": 98
  },
  {
    "compound": "CCNC(=O)Nc1cc(-c2nc(C(F)(F)F)cs2)c(-c2cnc3c(c2)c(=O)c(C(=O)O)cn3C[C@@H]2CCCN2CC)cn1 [Example 32]",
    "target under test": "S. aureus GyrB ATPase (Staphylococcus aureus)",
    "inhibition at 1 µM, %": 103
  },
  {
    "compound": "CCNC(=O)Nc1cc(-c2nc(C(F)(F)F)cs2)c(-c2cnc3c(c2)c(=O)c(C(=O)OCCCO)cn3CC)cn1 [Example 18]",
    "target under test": "S. aureus GyrB ATPase (Staphylococcus aureus)",
    "inhibition at 1 µM, %": 108
  },
  {
    "compound": "CCNC(=O)Nc1cc(-c2nc(C(F)(F)F)cs2)c(-c2cc3c(=O)c(C(=O)O)cn(C4CN(C)C4)c3cn2)cn1 [Example 70]",
    "target under test": "S. aureus GyrB ATPase (Staphylococcus aureus)",
    "inhibition at 1 µM, %": 102
  },
  {
    "compound": "CCNC(=O)Nc1cc(-c2nc(C(F)(F)F)cs2)c(-c2cc3c(=O)c(C(=O)O)cn(CCN4CCCC4)c3cn2)cn1 [Example 67]",
    "target under test": "S. aureus GyrB ATPase (Staphylococcus aureus)",
    "inhibition at 1 µM, %": 93
  },
  {
    "compound": "CCNC(=O)Nc1cc(-c2nc(C(F)(F)F)cs2)c(-c2cnc3c(c2)c(=O)c(C(=O)O)cn3CCC2CCN(C)CC2)cn1 [Example 2]",
    "target under test": "S. aureus GyrB ATPase (Staphylococcus aureus)",
    "inhibition at 1 µM, %": 123
  },
  {
    "compound": "CCNC(=O)Nc1cc(-c2nc(C(F)(F)F)cs2)c(-c2cc3c(=O)c(C(=O)O)cn(C(COC)COC)c3cn2)cn1 [Example 44]",
    "target under test": "S. aureus GyrB ATPase (Staphylococcus aureus)",
    "inhibition at 1 µM, %": 102
  },
  {
    "compound": "CCNC(=O)Nc1cc(-c2nc(C(F)(F)F)cs2)c(-c2cc3c(=O)c(C(=O)O)cn([C@H](CO)C(C)(C)C)c3cn2)cn1 [Example 71]",
    "target under test": "S. aureus GyrB ATPase (Staphylococcus aureus)",
    "inhibition at 1 µM, %": 103
  },
  {
    "compound": "CCNC(=O)Nc1cc(-c2nc(C(F)(F)F)cs2)c(-c2cnc3c(c2)c(=O)c(C(=O)O)cn3CC2CCN(C)CC2)cn1 [Example 1]",
    "target under test": "S. aureus GyrB ATPase (Staphylococcus aureus)",
    "inhibition at 1 µM, %": 107
  },
  {
    "compound": "CCNC(=O)Nc1cc(-c2nc(C(F)(F)F)cs2)c(-c2cnc3c(c2)c(=O)c(C(=O)OCCCOP(=O)(O)O)cn3CC)cn1 [Example 22]",
    "target under test": "S. aureus GyrB ATPase (Staphylococcus aureus)",
    "inhibition at 1 µM, %": 104
  },
  {
    "compound": "CCNC(=O)Nc1cc(-c2nc(C(F)(F)F)cs2)c(-c2cc3c(=O)c(C(=O)O)cn(C[C@@H]4CCN(CC)C4)c3cn2)cn1 [Example 74]",
    "target under test": "S. aureus GyrB ATPase (Staphylococcus aureus)",
    "inhibition at 1 µM, %": 100
  }
]

Just for reference, patent US8569484B2 is where these values come from.
